Every entry's value here was drawn from the supplement of paper PMC3545927.

Biological target: furin, P09958;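 note: purified furin at 1:10 enzyme:substrate in 50 mM HEPES pH 7.5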
Sequence (P09958 whole entry): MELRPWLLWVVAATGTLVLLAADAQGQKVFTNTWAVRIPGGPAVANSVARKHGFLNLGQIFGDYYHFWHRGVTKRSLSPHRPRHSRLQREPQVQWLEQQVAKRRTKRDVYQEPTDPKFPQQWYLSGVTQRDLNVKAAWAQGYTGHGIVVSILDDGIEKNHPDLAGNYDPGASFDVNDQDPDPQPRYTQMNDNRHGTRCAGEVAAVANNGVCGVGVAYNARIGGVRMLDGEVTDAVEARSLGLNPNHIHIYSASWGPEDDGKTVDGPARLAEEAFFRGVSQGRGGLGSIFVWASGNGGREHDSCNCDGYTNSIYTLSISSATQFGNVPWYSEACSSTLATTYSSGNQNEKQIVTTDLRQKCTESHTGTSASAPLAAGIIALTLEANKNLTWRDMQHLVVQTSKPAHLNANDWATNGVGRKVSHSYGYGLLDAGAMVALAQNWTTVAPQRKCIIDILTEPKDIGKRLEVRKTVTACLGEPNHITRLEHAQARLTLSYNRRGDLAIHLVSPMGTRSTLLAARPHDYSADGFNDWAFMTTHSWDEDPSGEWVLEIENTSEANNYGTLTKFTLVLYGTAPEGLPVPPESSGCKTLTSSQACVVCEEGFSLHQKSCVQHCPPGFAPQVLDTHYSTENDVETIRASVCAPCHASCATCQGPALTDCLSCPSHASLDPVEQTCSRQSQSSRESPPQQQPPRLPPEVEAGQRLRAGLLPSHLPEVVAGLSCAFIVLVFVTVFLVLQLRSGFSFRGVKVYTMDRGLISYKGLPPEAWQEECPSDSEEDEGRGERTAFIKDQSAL
Assay: furin cleavage Z-score vs untreated control; higher = more cleavage, active = 3.5 or more, inactive = 1 or less, 8 variable residues between constant flanks
Conditions: 30 min
This is one part of the list. How many sequences the whole screen found active is unknown.
quantityMeasured: furin cleavage Z-score

monomersequence="CARIRRRASQAGNASASA [FS-2032]" datavalue=4.94
monomersequence="CAGFGAYMSKAGNASASA [HC792]" datavalue=1.32
monomersequence="CARLRRVVGQAGNASASA [FS-1747]" datavalue=1.66
monomersequence="CAEVVTPTWVAGNASASA [HC160]" datavalue=-0.017
monomersequence="CARLRRAADHAGNASASA [FS-2712]" datavalue=7.64
monomersequence="CAVVCCSSSYAGNASASA [HC2057]" datavalue=-1.02
monomersequence="CARLRRVSHQAGNASASA [FS-1861]" datavalue=1.98
